target: Inadl_3, Q8NI35; test: holdup assay; design: key: below the threshold = too weak to quantify, mostly under pKd 3.1 to 4; settings: plain residues with an end cap or a label only (N-terminal biotin on a linker: ado-ado)
Sequence (Q8NI35 359-469): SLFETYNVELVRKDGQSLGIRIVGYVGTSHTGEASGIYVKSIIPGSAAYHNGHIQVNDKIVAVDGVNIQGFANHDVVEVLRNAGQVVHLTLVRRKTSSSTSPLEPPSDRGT
VALUE_TYPE: pKd

Recorded pKd, per entry:
BINDER	pKd
PAPSSGKDYV [CLDN1, O95832]	below the threshold
QHKTQLQTLI [BPIFA2, Q96DR5]	3.93
SNAGNTATKA [NOSTRIN, Q8IVI9]	below the threshold
QSLNRMEYIV [JAG1, P78504]	5.17
EALLQMESVA [CAVIN3, Q969G5]	below the threshold
LPHPHSTTRV [NLGN2, Q8NFZ4]	below the threshold
SSALYGESDL [ACTN2, P35609]	below the threshold
EVEEFPETSV [TRPV3, Q8NET8]	3.72
YLEPVLSSEL [ATP2A2, P16615;P16615-3]	below the threshold
KKMPSIESDV [GRIN2A, Q12879]	below the threshold

Record request: pKd value, item DDPSTAETVL [ABCA7, Q8IZY2]
3.73

Any idea what its pKd is? The binder is KSGKQTMLVV [TRIM29, Q14134;Q14134-2]
below the threshold

What measured pKd goes with DDENIRTSDV [PLEKHA2, Q9HB19] ?
below the threshold

Look up pKd: PPYRHRNTVV [ERBB4, Q15303]
below the threshold
